Where do these numbers come from? They come from PubChem BioAssay AID504848.

- method summary: Confirmation screen for delayed death inhibitors of the malarial parasite plastid, 96 hour incubation; also: nearly all actives have a fitted effect of over 60% in size; also: potency is read from the fitted curve at half-maximal effect
- condition notes: P. falciparum luciferase growth in erythrocytes; series mostly up to 28.7 µM
- Source text: The goal of this screen is to discover new antimalarial compounds that act by inhibiting the development of the apicoplast in the malarial parasite Plasmodium falciparum. The biochemical processes that make this organelle essential for erythrocytic stage parasites are not well understood. […] Growth inhibition is detected by a decrease in luciferase activity. […]
Out of some 2,300 compounds screened, about 1,400 (61%) were called active. About 29% were inconclusive and are not listed. So high a share suggests a set chosen from earlier hits. Some of the results follow.
readout label: Potency

- compound: "CN(CC(=O)Nc1ccc(F)c(Cl)c1)S(=O)(=O)c1ccc2c(c1)n(C)c(=O)c(=O)n2C"
  Potency: "10 µM (active)"
- compound: "CN(C)S(=O)(=O)c1cc(NC(=O)c2cc(=O)c3ccccc3o2)ccc1Cl"
  Potency: "5.01 µM (active)"
- compound: "C/C(=C\\C(=O)OCCCCCCCCC(=O)O)C[C@@H]1OC[C@H](C[C@@H]2O[C@H]2[C@@H](C)[C@H](C)O)[C@@H](O)[C@H]1O"
  Potency: "0.501 µM (active)"

[Q] Using the record for `COc1ccccc1CCNC(=O)CCn1nc(C)c2c(C)n(-c3ccccc3)nc2c1=O` , report its Potency.
[A] 7.94 µM (active)

[Q] Using the record for `CN(C)S(=O)(=O)c1cc(NC(=O)C2=COCCO2)ccc1Cl` , report its Potency.
[A] 10 µM (active)

[Q] Using the record for CN1C(=O)C(C)(C)c2cc(S(=O)(=O)NCC3CCC(C(=O)NCc4ccc(F)cc4)CC3)ccc21 (centres undefined) , report its Potency.
[A] 11.2 µM (active)

[Q] Using the record for `CC1(C)CC(=O)C2=C(C1)OC1=C(C(=O)CC(C)(C)C1)C2c1ccc(O)cc1O` , report its Potency.
[A] 7.08 µM (active)

[Q] Using the record for `CCCNC(=O)COc1coc(CN2CCN(c3cccc(Cl)c3)CC2)cc1=O` , report its Potency.
[A] 10 µM (active)

[Q] Using the record for `CCOc1cccc2sc(NC(=O)CCS(=O)(=O)c3ccccc3)nc12` , report its Potency.
[A] 5.62 µM (active)

---

- method summary: Confirmation screen for delayed death inhibitors of the malarial parasite plastid, 96 hour incubation; also: nearly all actives have a fitted effect of over 60% in size
- condition notes: P. falciparum luciferase growth in erythrocytes; series mostly up to 28.7 µM
Screen size: about 2,300 compounds; about 1,400 (61%) were called active. About 29% were inconclusive and are not listed. Calls follow the shape of the dose curve; as a rule, active = well fitted inhibition curve with a large enough effect; inconclusive = small, poorly fitted or top-dose-only effect, or effect the other way; inactive = no such curve, though single readings can be large or run the other way. So high a share suggests a set chosen from earlier hits. The list shows a part of the results.
Please reply with one of these outcomes: active, inactive

Before answering, review these 4 worked examples.
- molecule: "COc1ccc(/C=C/C(=O)c2ccc(C(=O)/C=C/c3ccc(OC)c(OC)c3)cc2)cc1OC"
  category label: "inactive"
- molecule: "OC1CCN(c2c3c(nc4cc(-c5ccc(Cl)cc5)nn24)CCC3)CC1"
  category label: "active"
- molecule: "O=S1(=O)Nc2c(ccc3cccnc23)-c2ccccc21"
  category label: "active"
- molecule: "CCS(=O)(=O)N1Cc2ccccc2CC1C(=O)Nc1cccc(OC)c1 (configuration not stated)"
  category label: "inactive"

[Q] How was `CCCNC(=O)COC(=O)c1ccccc1C(=O)c1ccc(Cl)c([N+](=O)[O-])c1` classified in this test?
[A] active

[Q] How was `O=C(CSc1nnc(COc2ccccc2)n1-c1ccccc1)c1cccs1` classified in this test?
[A] active

[Q] How was `Cn1c(=O)c(=O)n(C)c2cc(N3CCCCC3)c(NS(=O)(=O)c3ccc(Br)cc3)cc21` classified in this test?
[A] active

[Q] How was `COc1ccc(NC(=O)[C@H](Cc2c[nH]c3ccccc23)NC(=O)[C@@H]2Cc3ccccc3CN2)cc1` classified in this test?
[A] active

[Q] How was Cc1ccc(C2(C)NC(=O)N(CC(=O)N3CCN(S(=O)(=O)c4cccc(F)c4)CC3)C2=O)cc1 (configuration not stated) classified in this test?
[A] active

---

- method summary: Confirmation screen for delayed death inhibitors of the malarial parasite plastid, 96 hour incubation; also: nearly all actives have a fitted effect of over 60% in size; also: potency is read from the fitted curve at half-maximal effect
- condition notes: P. falciparum luciferase growth in erythrocytes; series mostly up to 28.7 µM
The whole screen tested about 2,300 compounds, of which about 1,400 (61%) were called active. Inconclusive results (about 29%) are left out. So high a share suggests a set chosen from earlier hits. Some of the results follow.
readout label: Potency

Below, 3 compounds whose answers are already recorded.
- compound: "O=C(Nc1ccc(N2CCN(C(=O)c3ccccc3)CC2)cc1)c1ccc([N+](=O)[O-])o1"
  Potency: "3.16 µM (active)"
- compound: "O=C(NCc1cccnc1)c1ccc(NS(=O)(=O)c2ccccc2)cc1"
  Potency: "7.08 µM (active)"
- compound: "O=C(NCc1cccnc1)c1ccc(Cl)c(S(=O)(=O)N2CCOCC2)c1"
  Potency: "11.2 µM (active)"

Field: next compound
[Q] Using the record for O=C1/C(=C/c2ccc(Cl)cc2)SC(=S)N1CCC(=O)N1CCCCC1CCO (stereo not given) , report its Potency.
[A] 12.6 µM (active)

---

- method summary: Confirmation screen for delayed death inhibitors of the malarial parasite plastid, 96 hour incubation; also: nearly all actives have a fitted effect of over 60% in size
- condition notes: P. falciparum luciferase growth in erythrocytes; series mostly up to 28.7 µM
Screen size: about 2,300 compounds; about 1,400 (61%) were called active. Not shown: some 29% with an inconclusive outcome. Calls come from the whole dose curve; as a rule, active = well fitted inhibition curve with a large enough effect; inconclusive = small, poorly fitted or top-dose-only effect, or effect the other way; inactive = no such curve, though single readings can be large or run the other way. The set was probably picked from earlier hits. The list shows a part of the results.
Please reply with one of these outcomes: active, inactive

Before answering, review these 3 worked examples.
- compound: "O=C(c1ccsc1)N1CCCC(N2CCN(c3cccc(C(F)(F)F)c3)CC2)C1 (stereo not drawn)"
  category label: "active"
- compound: "COc1ccc(CN(C(=O)c2oc3ccc(F)cc3c2C)C2CCS(=O)(=O)C2)cc1 (stereo not drawn)"
  category label: "active"
- compound: "Cc1nc([N+](=O)[O-])c(Br)n1CC(=O)c1ccc(Cl)cc1"
  category label: "active"

[Q] How was `C/C(=C\C(=O)c1ccncc1)Nc1ccccc1O` classified in this test?
[A] active

[Q] How was Cc1cccc(N2CCN(C3=NC(=O)C(Cc4ccccc4)S3)CC2)c1 (stereo not drawn) classified in this test?
[A] active

[Q] How was `O=C(NCc1cccnc1)/C(=C\c1ccc(-c2cccc(Cl)c2)o1)S(=O)(=O)c1ccccc1` classified in this test?
[A] active

[Q] How was `CCOc1ccc(N(C)C(=O)CCc2nnc3ccc(N4CCCCC4)nn23)cc1` classified in this test?
[A] active

[Q] How was `COc1ccc(C(=O)/C=C/c2ccccc2)c(OC)c1` classified in this test?
[A] active

[Q] How was Cc1ccc2c(c1)c1c3n2CCN(C(=O)CCl)C3CCC1 (stereo not drawn) classified in this test?
[A] active

[Q] How was Cc1cc(C(=O)N(C)CC2CCCN(CCc3ccc(F)cc3)C2)c(C)o1 (stereo not drawn) classified in this test?
[A] active

---

- method summary: Confirmation screen for delayed death inhibitors of the malarial parasite plastid, 96 hour incubation; also: nearly all actives have a fitted effect of over 60% in size
- condition notes: P. falciparum luciferase growth in erythrocytes; series mostly up to 28.7 µM
About 1,400 (61%) of roughly 2,300 compounds were called active. Another 29% or so got no clear call; they are omitted. The call rests on the fitted dose curve; in most records, active means well fitted inhibition curve with a large enough effect; inconclusive means small, poorly fitted or top-dose-only effect, or effect the other way; inactive means no such curve, though single readings can be large or run the other way. The set was probably picked from earlier hits. The list shows a part of the results.
Please reply with one of these outcomes: active, inactive

Before answering, review these 6 worked examples.
- compound: "Fc1cccc(CNc2ncnc3ccc(-c4ccc5c(c4)OCO5)cc23)c1"
  category label: "active"
- compound: "COCCn1c(=NC(=O)/C=C/c2ccccc2)sc2cc(NC(C)=O)ccc21"
  category label: "active"
- compound: "Cc1nn(Cc2ccccc2Cl)c(C)c1C(=O)Nc1nnc(C2CC2)s1"
  category label: "active"
- compound: "CC(C)[C@H](NC(=O)N1CCn2c1nc1ccccc12)C(=O)N[C@H](C(=O)O)c1ccccc1"
  category label: "inactive"
- compound: "Fc1ccc(CSc2nncn2NCc2ccc3c(c2)OCO3)cc1"
  category label: "inactive"
- compound: "Cc1ccc(S(=O)(=O)Nc2cccc3cccnc23)c([N+](=O)[O-])c1"
  category label: "active"

[Q] How was CN(C)S(=O)(=O)c1ccc(NCC2COc3ccccc3O2)c([N+](=O)[O-])c1 (stereo unspecified) classified in this test?
[A] active

[Q] How was `Cc1cccc(N/N=C(\C(N)=O)C2=NC(C)(C)Cc3ccccc32)c1` classified in this test?
[A] active

[Q] How was `CC(=O)N1CN(C2CCCC2)Cc2c1sc1c2CCCC1` classified in this test?
[A] active

[Q] How was `Cc1cc(OCC(=O)N[C@@H](CSCc2ccccc2)C(=O)O)c2c(C)c(C)c(=O)oc2c1` classified in this test?
[A] active

[Q] How was `Cc1nn(CCCC(=O)NCc2ccco2)c(=O)c2nn(-c3ccccc3)c(C)c12` classified in this test?
[A] active

[Q] How was `Cc1cc(C)c(C(=O)/C=C/c2cccc3ccccc23)c(=O)[nH]1` classified in this test?
[A] active

[Q] How was `COc1ccc(C)cc1-n1c(SCC(=O)Nc2cc(C)on2)nc2sc(C)c(C)c2c1=O` classified in this test?
[A] active

[Q] How was `Cc1ccc2c(c1)N(CCC(=O)NCc1ccco1)C(=O)CO2` classified in this test?
[A] inactive

[Q] How was `COc1ccc(/C=C/C(=O)c2ccccc2)cc1Cn1nnc2ccccc21` classified in this test?
[A] active
